Experiment: Inhibition of SARS-CoV NSP13 helicase in presence of DT20Cy3 and ReleaseBHQ by FRET-based assay
Design: species or system Severe acute respiratory syndrome-related coronavirus
recorded-endpoint: IC50 (nM)
One number for each entry, in nM.

response.value for Cc1ncc(CO)c(C23OC4(O)CC(O)(CC(O)(C4)O2)O3)c1O (field: IC50) = 3000

###

Test: Inhibition of SARS-CoV 3C-like protease by FRET assay
Set-up: species or system Severe acute respiratory syndrome-related coronavirus
recorded-endpoint: pIC50
One number for each entry, as −log10 of the molar value.

What the record says about CC(C)(C)OC(=O)Nc1cccn([C@@H](CC2CC2)C(=O)N[C@@H](C[C@@H]2CCCC2=O)C(=O)C(=O)NCc2ccccc2)c1=O : pIC50 is 6.05

###

Target: mRNA cap guanine-N(7) methyltransferase (Homo sapiens)
Sequence (O43148 whole entry): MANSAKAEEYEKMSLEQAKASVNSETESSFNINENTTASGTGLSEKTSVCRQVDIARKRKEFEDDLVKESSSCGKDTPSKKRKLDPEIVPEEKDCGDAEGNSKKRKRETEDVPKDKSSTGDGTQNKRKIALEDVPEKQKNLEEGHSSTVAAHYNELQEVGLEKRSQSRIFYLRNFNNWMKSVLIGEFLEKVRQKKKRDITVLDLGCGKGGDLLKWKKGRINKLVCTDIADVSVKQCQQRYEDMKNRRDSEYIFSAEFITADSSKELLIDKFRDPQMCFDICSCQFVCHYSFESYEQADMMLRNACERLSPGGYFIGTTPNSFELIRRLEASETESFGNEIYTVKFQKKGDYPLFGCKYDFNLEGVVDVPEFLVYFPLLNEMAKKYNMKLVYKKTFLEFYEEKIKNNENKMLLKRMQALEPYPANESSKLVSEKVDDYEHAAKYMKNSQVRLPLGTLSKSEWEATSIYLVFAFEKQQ
recorded-endpoint: pIC50
Numbers only, as −log10 of the molar value.

Tested on mRNA cap guanine-N(7) methyltransferase (Homo sapiens), the item Nc1ncnc2c1ncn2[C@@H]1O[C@H](C[C@@H](N)CC[C@H](N)C(=O)O)[C@@H](O)[C@H]1O [SINEFUNGIN] showed pIC50 equal to 9.26

###

Assay: Inhibition of SARS-CoV C-terminal (GPH6 residues)-fused wild type 3C-like protease expressed in Escherichia coli BL21(DE3) cells using MCA-AVLQSGFR-Lys(Dnp)-Lys-NH2 s substrate by fluorescence method
Parameters: species or system Severe acute respiratory syndrome-related coronavirus
recorded-endpoint: Ki (nM)
Give bare numbers, in nM.

The compound Cc1cc(C(=O)N[C@@H](C)C(=O)N[C@H](C(=O)N[C@@H](CC(C)C)C(=O)N[C@H](/C=C/C(=O)OCc2ccccc2)C[C@@H]2CCNC2=O)C(C)C)no1 showed Ki equal to 2300

###

Test system: guanine-N7 methyltransferase (human versus SARS-CoV)
Test: in vitro
recorded-endpoint: selectivity ratio

Note to self: selectivity ratio recorded for Nc1ncnc2c1ncn2[C@@H]1O[C@H](C[C@@H](N)CC[C@H](N)C(=O)O)[C@@H](O)[C@H]1O was < 2.63

###

System: guanine-N7 methyltransferase (human versus SARS coronavirus WHU)
Experiment: in vitro
recorded-endpoint: selectivity ratio
Numbers only.

// selectivity ratio lookup, compound = Nc1ncnc2c1ncn2[C@@H]1O[C@H](C[C@@H](N)CC[C@H](N)C(=O)O)[C@@H](O)[C@H]1O [SINEFUNGIN] , result: 0.32

###

Assay: Inhibition of SARS-CoV2 3C-like protease (3264 to 3569 residues) expressed in Escherichia coli BL21(DE3) BL21-Gold using Dabcyl-KTSAVLQSGFRKM-E(Edans)-NH2 as substrate preincubated for 10 min followed by substrate addition by FRET assay
Design: species or system Severe acute respiratory syndrome coronavirus 2
recorded-endpoint: IC50 (nM)
Give bare numbers, in nM.

Kindly note the recorded IC50 for CC(C)(C)OC(=O)Nc1cccn([C@@H](CC2CC2)C(=O)N[C@@H](C[C@@H]2CCCC2=O)C(=O)C(=O)NCc2ccccc2)c1=O , which is 670

###

Assay: Inhibition of SARS-CoV spike protein expressed in Escherichia coli BL21(DE3)pLysS/human ACE2 using 2,2'-azinobis(3-ethylbenzthiazoline-sulfonic acid) preincubated for 2 hrs with biotinylated S protein followed by incubation with ACE2 for 1 hr and subsequent substrate addition by competitive biotinylated ELISA
recorded-endpoint: IC50
Please don't drop the unit; write it after the number.

Just so you know, measured IC50 for H-SQKSIVAYTM-NH2 came out at 1.8 nM
